- Protocol: Emesis Studies in beagle dogs
- Format: in vivo
- Stated conditions: dog, in vivo; IV, 10-minute infusion, 6-hour postdosing scoring; threshold dose at which 50% of animals exhibited emetic response; read-out: Emesis (Dogs) ED50
- Protocol: Beagle dogs (approximately 10 kg body weight) were treated intravenously with a 10-minute infusion of 20 mL of the test compound prepared in sodium lactate buffer, pH 4.0. Dogs were scored over a 6-hour postdosing period for both the number of emetic episodes and the relative volume. Antiemetic therapy consisted of a 5-minute infusion of ondansetron, administered at a dose of 0.3 mg/kg 30 minutes prior to treatment with the nitroimidazole.
Experimental readout: TD50 at 6 h (mg/kg)
Numbers only; they are read as mg/kg.

TD50 at 6 h recorded for this compound, Br.O=[N+]([O-])c1nccn1C[C@H](O)CNCCBr [(R)] , is 12

# input for lookup
TD50 at 6 h recorded for this compound, Br.O=[N+]([O-])c1nccn1C[C@@H](O)CNCCBr [(S)] , is 4
